Reported protein stability index values for a set of sequences
measurement-protocol: protein stability index of a GFP-peptide fusion (GPS, HEK-293T) (PSI 1-6); higher = more stable;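 also: 24-mer peptide tiles fused after GFP, lentivirally expressed, FACS-sorted into six equal bins by GFP/DsRed ratio, decoded by Illumina sequencing, PSI is the read-weighted mean bin number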
settings: treatment: MLN4924 1 uM, 8 h; c terminus: a fixed tail appended
measure: protein stability index

>>> recorded_value("CKVFGIHKACEVAPLQSVFQGQKT [TRIM63]")
2.96
>>> recorded_value("DLQLTVGGAQASGTLIGVGQSVTA [MFSD9]")
3.6
>>> recorded_value("DFNLCLFYLPSSPNLSLASEDEEE [SMG5]")
3.14
>>> recorded_value("DLVMALSAGGHGGLLNDTSAPHLE [KCNA4]")
2.58
>>> recorded_value("LDVGATEGQDLQHISNQKMPTGPP [DRICH1]")
5.21
>>> recorded_value("EEEDEILPRKDYESLDYDRCINDP [CLCN6]")
5.48
>>> recorded_value("LLSFKRGSALEEKENKILVKETGY [TNFSF13B]")
3.31
>>> recorded_value("ATPGGGTGEAARPHKGLNLHPLLS [PCDHGC5]")
3.83
>>> recorded_value("SRVTDPVGDIVSFMHSFEEKYGRA [FAF2]")
3.59
>>> recorded_value("RAAAQQRRSFLNAHHRSGAQVFPE [GNAS]")
3.5
>>> recorded_value("HTEERPYECNHCGKGFRHSSSLAQ [ZNF8]")
3.79
>>> recorded_value("RTPLIKLSPKKTWEGFIGGFFSTV [CDS1]")
1.88
>>> recorded_value("TQHKFICEQCGKCKCGECTAPRTL [SPRY1]")
3.87
>>> recorded_value("QAGDYSMRVDLRAGDEAVFAQYDS [TNXB]")
4.2
>>> recorded_value("EKVKKRPGGRPEVIYNYVQRPFIR [BTBD10]")
2.73
>>> recorded_value("QLEEGLKDTDLARVRRFQVVEVTK [M1AP]")
4.04
>>> recorded_value("CSVFPATDAPEQFISQVTVLKYFS [PLK2]")
2.56
>>> recorded_value("NDYICPATNQCTIDKNRRKSCQAC [ESR2]")
4.83
>>> recorded_value("PKRRWLFWNSPSSPSSSAASSSSP [RHOBTB2]")
3.75
>>> recorded_value("GAERKAALCELLEKETQIIASIGR [IQUB]")
3.2
>>> recorded_value("EDGHRTSTSAVPNLFVPLNTNPKE [ADD1]")
5.07
>>> recorded_value("HVFIGDHSGQVTILKLEQENCTLV [WDFY2]")
2.19
>>> recorded_value("DRVLQWERIDCQGIPPSSKDKLGV [KLHDC2]")
3.99
>>> recorded_value("EILEQQQQERNDTNFHGVCMFCNE [ZNF277]")
3.77
>>> recorded_value("WKEGRPRVEESGSKKEGKRQGPKE [PBXIP1]")
5.24
>>> recorded_value("FPFSLLGLLALAIGLWGLAVKGSL [TSPAN10]")
3.14
>>> recorded_value("LDYSFGDHTSEAVRNLFGLDPSSG [PCDHGC5]")
3.54
>>> recorded_value("AWVANFERPRMNANSLLASPTGLS [CRY1]")
2.97
>>> recorded_value("RGAPAVQQNIPSTLLQDHENQRLF [WAS]")
4.29
>>> recorded_value("SEEAPGGTELIQTPLASSTDHQTP [HDAC6]")
5.51
>>> recorded_value("SLTRSNRHRLRWHSFQSSHRPSLN [DLC1]")
3.41
>>> recorded_value("IEDSTGLNRPGPAPLSSRKHVLYV [TCF25]")
2.35
>>> recorded_value("DGTGRMPTLKKCEDVARPTQRLWD [GALNT9]")
4.13
>>> recorded_value("FTGELAESRQTEVVIRDIDERAME [KLHL20]")
4.89
>>> recorded_value("KYVSKELAKEIRVKAEPFIKWLKE [EIF5]")
3.07
>>> recorded_value("QHGQLGTNTRRGSRAPCKVQGLEG [NEK8]")
4.19
>>> recorded_value("PETKQRKLSPLRLSVSNNQEPDFI [KMT2E]")
4.38
>>> recorded_value("TEDGKLDIWSKSNYQVFQKVTDHA [MED27]")
3.77
>>> recorded_value("KFSLLNAKREETKAMESQRAYRFV [SPOPL]")
3.13
>>> recorded_value("LSTSSSPSGTPTNLRRHVPDLESG [DLC1]")
4.7
>>> recorded_value("SSTSCLMPSKLFAGLVHVKQCIVA [CRYL1]")
2.11
>>> recorded_value("RVRFGQQKRYQDWFQRQYLSTPDS [INTS3]")
3.07
>>> recorded_value("SDSVIMTGSYNNFFRMFDRNTKRD [PPP2R2B]")
3.63
>>> recorded_value("TVTSLKTKVGGTNPNGGSFEEVLS [TPD52L1]")
3.82
>>> recorded_value("VEILMILFAFMLVYPKEFHLNRGN [PPEF2]")
3.58
>>> recorded_value("RIQTQKEQAKENENGELQKIILPR [ZC2HC1C]")
4.51
>>> recorded_value("PVAAQFTSEGTTLSGVDLELVGSG [FCHO1]")
4.57
>>> recorded_value("SPNRSLPSPGVLCGSARPKPYDPP [ATF4]")
3.72
>>> recorded_value("QNPRQVAQSEAEKKLKKDDKKKEL [ZC3H15]")
5.58
>>> recorded_value("EKEKAEIEAKEACDWLRATGFPQY [DLC1]")
4.09
>>> recorded_value("FIGLEVVAQLFNCMVGLLLIALLT [ATL3]")
3.39
>>> recorded_value("RKSLALDIVDEDVKLMMSTLPKSL [MYBL2]")
2.76
>>> recorded_value("SLEPFRPQQAPQDDGSQDPEVLDR [PWWP2B]")
5.53
